- Subject Of Test: Recombinant TYK2 (Homo sapiens, UniProt P29597)
- Construct: purchased Carna Biosciences
- Sequence (P29597 whole entry): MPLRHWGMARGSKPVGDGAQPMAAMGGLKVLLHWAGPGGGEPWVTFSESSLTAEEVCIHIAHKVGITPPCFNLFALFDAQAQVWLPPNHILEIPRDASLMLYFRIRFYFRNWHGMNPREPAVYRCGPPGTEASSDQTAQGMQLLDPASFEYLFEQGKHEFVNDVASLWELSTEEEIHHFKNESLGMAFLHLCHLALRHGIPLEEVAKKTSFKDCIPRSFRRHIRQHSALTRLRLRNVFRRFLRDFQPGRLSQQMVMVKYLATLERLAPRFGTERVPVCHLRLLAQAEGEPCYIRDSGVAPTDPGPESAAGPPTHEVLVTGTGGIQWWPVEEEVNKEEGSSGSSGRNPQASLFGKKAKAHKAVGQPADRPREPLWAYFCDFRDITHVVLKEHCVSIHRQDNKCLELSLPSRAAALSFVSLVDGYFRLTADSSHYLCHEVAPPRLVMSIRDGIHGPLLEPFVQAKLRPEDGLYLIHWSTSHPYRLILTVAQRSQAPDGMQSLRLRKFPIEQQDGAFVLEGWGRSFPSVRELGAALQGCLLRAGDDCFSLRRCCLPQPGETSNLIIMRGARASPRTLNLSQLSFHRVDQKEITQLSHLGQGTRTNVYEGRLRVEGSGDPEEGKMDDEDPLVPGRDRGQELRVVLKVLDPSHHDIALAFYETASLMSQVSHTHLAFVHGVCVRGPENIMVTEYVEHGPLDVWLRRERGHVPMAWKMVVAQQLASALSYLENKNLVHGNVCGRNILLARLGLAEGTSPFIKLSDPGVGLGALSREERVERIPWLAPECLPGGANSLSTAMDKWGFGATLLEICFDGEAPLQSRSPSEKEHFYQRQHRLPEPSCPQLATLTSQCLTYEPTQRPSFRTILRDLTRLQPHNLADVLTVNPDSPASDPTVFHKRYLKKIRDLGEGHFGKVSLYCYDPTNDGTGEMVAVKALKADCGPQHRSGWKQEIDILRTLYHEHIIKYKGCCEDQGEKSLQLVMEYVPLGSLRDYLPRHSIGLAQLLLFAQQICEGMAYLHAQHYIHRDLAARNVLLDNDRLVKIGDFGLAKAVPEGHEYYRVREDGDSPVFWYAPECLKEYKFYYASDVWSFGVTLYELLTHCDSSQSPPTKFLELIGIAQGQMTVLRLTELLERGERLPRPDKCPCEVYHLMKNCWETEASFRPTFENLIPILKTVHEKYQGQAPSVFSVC
- Assay Method Text: JAK biochemical assay (LANCE Ultra TR-FRET), TYK2
- Applied Conditions: recombinant TYK2, TR-FRET; read-out: Biochemical Assay (μM) TYK2
// reported IC50 for each item listed

[
  {
    "Compound": "OC(c1cccc(-n2cc(-c3ccnc4[nH]cnc34)cn2)n1)C(F)(F)F (centres unmarked) [Example 1170]",
    "IC50": "> 1 µM"
  },
  {
    "Compound": "CC(O)(c1ccc(-n2cc(-c3ccnc4[nH]cnc34)cn2)nc1)C(F)(F)F (centres unmarked) [Example 1125]",
    "IC50": "0.15 µM"
  },
  {
    "Compound": "N#CC1CCN(C(=O)n2cc(-c3ccnc4[nH]cnc34)cn2)C1 (centres unmarked) [Example 1177]",
    "IC50": "> 0.5 µM"
  }
]

Tell me the measured IC50 of O=C(Nc1ccnc(F)c1)N1CCN(c2ccnc3[nH]c(=O)[nH]c23)CC1 [Example 1015] , please.
> 1 µM

Tell me the measured IC50 of O=C(NCC(F)(F)F)n1ccc(-c2ccnc3[nH]c(=O)[nH]c23)c1 [Example 1028] , please.
> 1 µM

Tell me the measured IC50 of CC(C)C(=O)NCCC(c1ccc(-n2cc(-c3ccnc4[nH]cnc34)cn2)nc1)C(F)(F)F (centres unmarked) [Example 1247] , please.
0.19 µM

Tell me the measured IC50 of N#CCC(NC(=O)n1cc(-c2ccnc3[nH]cnc23)cn1)C1CCOCC1 (centres unmarked) [Example 1065] , please.
> 0.5 µM

Tell me the measured IC50 of O[C@](c1ccc(-n2cc(-c3ccnc4[nH]cnc34)cn2)nc1)(C1CCN(C2COC2)C1)C(F)(F)F (some centres unmarked) [Example 1243] , please.
> 1 µM

Data provenance is patent US12516056B2.
